Collected kinase still bound, per cent of control values appear next to each entry.
Biological target: PLK4 (human)
Test: KINOMEscan competition binding
Conditions: compound 10.0 µM
experimental_readout: kinase still bound, per cent of control (%)

>>> value_measured("CCc1nc(-c2cccc(C)c2)c(-c2ccnc(NC(=O)c3ccccc3)c2)s1")
100
>>> value_measured("N#Cc1cc(-c2ccnc(Nc3ccc(-n4cnc(-c5cccnc5)n4)cc3)n2)cc(N2CCOCC2)c1")
22
>>> value_measured("CC1=C(C(=O)Nc2cc3cn[nH]c3cc2F)C(c2ccc(C(F)(F)F)cc2)CC(=O)N1 (centres undefined)")
86
>>> value_measured("CC(=O)c1c(C)c2cnc(Nc3ccc(N4CCNCC4)cn3)nc2n(C2CCCC2)c1=O")
3.2
>>> value_measured("Cc1cn(-c2cc(C(=O)Nc3ccc(C)c(NC(=O)c4ccno4)c3)cc(C(F)(F)F)c2)cn1")
100
>>> value_measured("COc1cc(N2CCC(C(N)=O)CC2)ccc1Nc1nc(N)c(Cl)c(Nc2ccccc2S(=O)(=O)C(C)C)n1")
2.8
>>> value_measured("COc1cc2c(Nc3ccc(NC(=O)c4ccccc4)cc3)ncnc2cc1OCCCN1CCOCC1")
2
>>> value_measured("O=c1[nH]c2ccccc2n1C1CCN(Cc2ccc(-c3nc4cc5[nH]cnc5cc4nc3-c3ccccc3)cc2)CC1")
60
>>> value_measured("CCOc1cc(N2CCC(O)CC2)ccc1Nc1ncc2c(n1)N(C)c1ccccc1C(=O)N2C")
2.8
